tested on: L5178Y; experiment: Cytotoxicity against chemosensitive wild type parental mouse L5178Y cells incubated for 24 hrs by MTT assay; type: functional, cell-based
pIC50: −log10 of the molar value.
Provide the recorded pIC50 for the entries that follow.

Exercise: Given the entry C/C1=C\[C@@H]2[C@H](CC[C@]3(CO3)[C@H](O)[C@H]3[C@@H](O)[C@@H](C)C[C@]3(O)C1=O)C2(C)C , report its measured pIC50.
Solution: < 4.00

Exercise: Given the entry CCN(CC)C(=O)O[C@@H]1[C@@H]2[C@@H](OC(=O)N(CC)CC)[C@]3(CC[C@H]4[C@@H](/C=C(\C)C(=O)[C@@]2(O)C[C@@H]1C)C4(C)C)CO3 , report its measured pIC50.
Solution: < 4.00

Exercise: Given the entry C/C1=C\[C@@H]2[C@H](CC[C@]3(CO3)[C@H](OC(=O)c3ccc(C(F)(F)F)cc3)[C@H]3[C@@H](OC(=O)c4ccc(C(F)(F)F)cc4)[C@@H](C)C[C@]3(O)C1=O)C2(C)C , report its measured pIC50.
Solution: < 4.00

Exercise: Given the entry COc1cccc(C(=O)O[C@@H]2[C@@H]3[C@@H](OC(=O)c4cccc(OC)c4)[C@]4(CC[C@H]5[C@@H](/C=C(\C)C(=O)[C@@]3(O)C[C@@H]2C)C5(C)C)CO4)c1 , report its measured pIC50.
Solution: 4.37

Exercise: Given the entry C/C1=C\[C@@H]2[C@H](CC[C@]3(CO3)[C@H](OC(=O)c3ccc4ccccc4c3)[C@H]3[C@@H](OC(=O)c4ccc5ccccc5c4)[C@@H](C)C[C@]3(O)C1=O)C2(C)C , report its measured pIC50.
Solution: < 4.00

Exercise: Given the entry CCO[C@@H]1[C@@H]2C(=O)C(O)(C[C@H](C)[C@@H]2O)/C(C)=C\[C@@H]2[C@H](CC[C@@]1(O)CO)C2(C)C , report its measured pIC50.
Solution: < 4.00

Exercise: Given the entry C/C1=C\[C@@H]2[C@H](CC[C@@](C)(O)[C@H](O)[C@H]3[C@@H](OC(=O)c4ccccc4)[C@@H](C)C[C@]3(O)[C@H]1OC(=O)c1ccccc1)C2(C)C , report its measured pIC50.
Solution: 4.28

Exercise: Given the entry CC(=O)O[C@@H]1[C@@H]2[C@@H](OC(C)=O)[C@](C)(OC(C)=O)CC[C@H]3[C@@H](/C=C(\C)[C@H](OC(C)=O)[C@@]2(OC(C)=O)C[C@@H]1C)C3(C)C , report its measured pIC50.
Solution: < 4.00

Exercise: Given the entry C/C1=C\[C@@H]2[C@H](CC[C@]3(CO3)[C@H](OC(=O)c3ccco3)[C@H]3[C@@H](OC(=O)c4ccco4)[C@@H](C)C[C@]3(O)C1=O)C2(C)C , report its measured pIC50.
Solution: < 4.30

Exercise: Given the entry C/C1=C\[C@@H]2[C@H](CC[C@]3(CO3)[C@H](OC(=O)c3cccc(C)c3)[C@H]3[C@@H](OC(=O)c4cccc(C)c4)[C@@H](C)C[C@]3(O)C1=O)C2(C)C , report its measured pIC50.
Solution: 4.58
